ASSAY_REMARKS: Multiple Ascending Dose (MAD) study, pharmacokinetics in healthy volunteers
Type: in vivo, human
CONDITION: human, in vivo, oral, 8 mg, 8 mg BID, Day 1, n = 4; arithmetic mean
MEASURED_ENDPOINT: Cmax (ng/mL)
Return type: number; implicit unit ng/mL.

Value of measured Cmax for the entry [2H]C1([2H])C([C@@H](CC#N)n2cc(-c3ncnc4[nH]ccc34)cn2)C([2H])([2H])C([2H])([2H])C1([2H])[2H] : 160

###

ASSAY_REMARKS: Multiple Ascending Dose (MAD) study, pharmacokinetics in healthy volunteers
Type: in vivo, human
CONDITION: human, in vivo, oral, 8 mg, 8 mg BID, Day 7, n = 4; arithmetic mean
MEASURED_ENDPOINT: Cmax
Kindly report the value followed by its unit.

Value of measured Cmax for the entry [2H]C1([2H])C([C@@H](CC#N)n2cc(-c3ncnc4[nH]ccc34)cn2)C([2H])([2H])C([2H])([2H])C1([2H])[2H] : 183 ng/mL

Reference for the values: patent US12076323B2
